- Tested on: HepG2
- method.notes: GSK_TCMDC: Percent inhibition of human HepG2 cell line. Test compounds present at 10uM.
- Type: functional
Threshold 9%: Inhibition strictly smaller gives t, otherwise f.

Determine whether this compound shows Inhibition lower than 9% (ties excluded): CC1(C)CCCN(Cc2c(O)ccc3c(O)c(-c4nc5ccccc5s4)c(=N)oc23)C1 f

Another compound: Clc1ccc(CNC2CCN(CC3CCCCC3)CC2)cc1.O=C(O)C(F)(F)F f

Now try COc1ccc2ncc(Cl)c([C@@H](O)CN3CCC(NCc4cc5c(cn4)OCCO5)CC3)c2c1.Cl . t

Field entry: Cc1cc(-c2ccc(NC(=O)N3CCc4cc(Cl)c(N5CCN(C)CC5)cc43)cc2)ccc1C#N f

Proceed to CCC(C)(C)C1CCc2[nH]c3ccccc3c(=O)c2C1 (stereo unspecified) f

Same read-out for CS(=O)(=O)c1ccc(-c2nc(NCC3CCCCC3)cc(C(F)(F)F)n2)cc1 ? t

Consider next the compound CCCCN(C(=O)c1ccccc1C)c1nnc(-c2ccccc2C)s1 in the same way. f

Ok, now Cc1cc2cc(/C=C/C(=O)NC3CCC(CCN4CCc5ccc(C#N)cc5CC4)CC3)ccc2[nH]1.Cl (stereo unspecified) t

Item: Cc1c(C)n(C2CCCCC2)c2ncnc(OC3CCN(CC(=O)NC4CC4)CC3)c12 f

Also CCOc1cccc(C2c3c(oc4ccccc4c3=O)C(=O)N2CCN(CC)CC)c1 (stereo unspecified) ? t

Field entry: O=C(/C=C/c1ccc(Cl)cc1)NCCCCCN1CCCC(C(=O)Nc2ccc(F)c(Cl)c2)C1 (stereo unspecified) f

Quick one: Nc1cccc(CNCc2cccc(-c3csc(-c4nc5ccccc5[nH]4)c3)c2)c1.O=C(O)C(F)(F)F f

Thanks! And CC1(C)C(=O)Nc2ccc3c(c21)CC1SC(=O)NN=C31 (stereo unspecified) ? t

Another: COc1cc(NC(=O)Nc2ccnc3ccccc23)cc(OC)c1.Cl f

// next record COc1ccc2nccc([C@@H](O)CN3CCC(NC(=O)C(=Cc4ccc(Cl)cc4Cl)c4ccc(-c5ccccc5)cc4)CC3)c2c1 t

Repeat with COc1ccc(NC(=O)NC2CCN(c3ccnc4ccccc34)C2)cc1.O=C(O)C(F)(F)F (stereo unspecified) t

Try this compound too: COc1ccc(C=C2SC(=O)N=C2Nc2ccccc2)c(OC)c1 f

Same for CC1(CCCCN2CCC(Cc3ccccc3)CC2)C(=O)Nc2ccccc21.Cl (stereo unspecified) f

Likewise for Cc1cc(F)ccc1Nc1nc(N(C)c2ccccc2)c2cc(OCCN(C)C)ccc2n1 ? f

Try this compound next: COc1ccc(-c2ccc3c(-c4cccc(S(C)(=O)=O)c4)cnc(N)c3c2)cc1 f

What about CCN(CC)/C(=N/C(=N)NCc1ccc(Cl)cc1)NCCCCCCN/C(=N\C(=N)NCc1ccc(Cl)cc1)N(CC)CC ? f

Query CC(C)N(CCOc1ccc2c(c1)N(C(=O)Nc1ccc(Cl)c(Cl)c1)CC2)C(C)C.O=C(O)C(F)(F)F next f

Now this one: COC(=O)c1cccc(CNCc2ccc(-c3ccc(-c4nc5ccccc5[nH]4)s3)cc2)c1.O=C(O)C(F)(F)F f

# iterate: CS(=O)(=O)c1ccc(CNCc2cccc(-c3ccc(-c4nc5cc(C(F)(F)F)ccc5[nH]4)cc3)c2)cc1.O=C(O)C(F)(F)F f

Now the compound CC(C)(C)c1ccc(CN2CCCCC(NC(=O)c3cc(-c4cccc(Cl)c4)cs3)C2)cc1.O=C(O)C(F)(F)F (stereo unspecified) f

Now consider O=C(/C=C/c1ccc(Cl)c(Cl)c1)N1CCC(CCN2CCC(c3c[nH]c4ccncc34)CC2)CC1 . f

What would you report for Cc1ccc(C)c(-n2c(SCC(=O)Nc3ccc(C(N)=O)cc3)nnc2-c2cccc(Cl)c2)c1 ? t

And Br.CC1CCC2(CC1)N=C(N)N=C(N)N2OCc1ccc(Br)c2ccccc12 (stereo unspecified) ? f

Same thing, different compound: Cc1cc(F)ccc1[C@H]1C[C@H](N2CCOCC2)CCN1C(=O)N(C)[C@@H](C)c1cc(C(F)(F)F)cc(C(F)(F)F)c1.Cl t

Cc1ccccc1C1CCN(c2ccc(C(=O)NC3CC3)cn2)CC1.O=C(O)C(F)(F)F , same question. f

Thanks! And CCc1cc([C@H]2O[C@@H](n3cnc4c(NCC(c5ccccc5)c5ccccc5)nc(NCCNc5ccccn5)nc43)[C@H](O)[C@@H]2O)on1.O=CO ? f

Can you handle NC1=NC(c2ccccc2)(c2ccccc2)C(=O)N1Cc1ccc(-c2cccnc2)cc1.O=CO next? f

// next record O=C(CCN(Cc1ccco1)c1nc(-c2ccc(F)cc2)nc2ccccc12)NC1CC1 t

Lookup Cl.O=c1ccc2ncc(Cl)c3c2n1CC3CN1CCC(NCc2cc3c(cn2)OCCO3)CC1 (stereo unspecified) f

CCCCCc1cc(OCCN(C)C)cc2c1C(=O)CC(C)(C)O2.Cl ? t
